targetUnderTest: Recombinant human JARID1B/KDM5B (Homo sapiens, UniProt Q9UGL1)
Construct: purchased Active Motif 31432; host or cells: Sf9 insect cells
Sequence (Q9UGL1 whole entry): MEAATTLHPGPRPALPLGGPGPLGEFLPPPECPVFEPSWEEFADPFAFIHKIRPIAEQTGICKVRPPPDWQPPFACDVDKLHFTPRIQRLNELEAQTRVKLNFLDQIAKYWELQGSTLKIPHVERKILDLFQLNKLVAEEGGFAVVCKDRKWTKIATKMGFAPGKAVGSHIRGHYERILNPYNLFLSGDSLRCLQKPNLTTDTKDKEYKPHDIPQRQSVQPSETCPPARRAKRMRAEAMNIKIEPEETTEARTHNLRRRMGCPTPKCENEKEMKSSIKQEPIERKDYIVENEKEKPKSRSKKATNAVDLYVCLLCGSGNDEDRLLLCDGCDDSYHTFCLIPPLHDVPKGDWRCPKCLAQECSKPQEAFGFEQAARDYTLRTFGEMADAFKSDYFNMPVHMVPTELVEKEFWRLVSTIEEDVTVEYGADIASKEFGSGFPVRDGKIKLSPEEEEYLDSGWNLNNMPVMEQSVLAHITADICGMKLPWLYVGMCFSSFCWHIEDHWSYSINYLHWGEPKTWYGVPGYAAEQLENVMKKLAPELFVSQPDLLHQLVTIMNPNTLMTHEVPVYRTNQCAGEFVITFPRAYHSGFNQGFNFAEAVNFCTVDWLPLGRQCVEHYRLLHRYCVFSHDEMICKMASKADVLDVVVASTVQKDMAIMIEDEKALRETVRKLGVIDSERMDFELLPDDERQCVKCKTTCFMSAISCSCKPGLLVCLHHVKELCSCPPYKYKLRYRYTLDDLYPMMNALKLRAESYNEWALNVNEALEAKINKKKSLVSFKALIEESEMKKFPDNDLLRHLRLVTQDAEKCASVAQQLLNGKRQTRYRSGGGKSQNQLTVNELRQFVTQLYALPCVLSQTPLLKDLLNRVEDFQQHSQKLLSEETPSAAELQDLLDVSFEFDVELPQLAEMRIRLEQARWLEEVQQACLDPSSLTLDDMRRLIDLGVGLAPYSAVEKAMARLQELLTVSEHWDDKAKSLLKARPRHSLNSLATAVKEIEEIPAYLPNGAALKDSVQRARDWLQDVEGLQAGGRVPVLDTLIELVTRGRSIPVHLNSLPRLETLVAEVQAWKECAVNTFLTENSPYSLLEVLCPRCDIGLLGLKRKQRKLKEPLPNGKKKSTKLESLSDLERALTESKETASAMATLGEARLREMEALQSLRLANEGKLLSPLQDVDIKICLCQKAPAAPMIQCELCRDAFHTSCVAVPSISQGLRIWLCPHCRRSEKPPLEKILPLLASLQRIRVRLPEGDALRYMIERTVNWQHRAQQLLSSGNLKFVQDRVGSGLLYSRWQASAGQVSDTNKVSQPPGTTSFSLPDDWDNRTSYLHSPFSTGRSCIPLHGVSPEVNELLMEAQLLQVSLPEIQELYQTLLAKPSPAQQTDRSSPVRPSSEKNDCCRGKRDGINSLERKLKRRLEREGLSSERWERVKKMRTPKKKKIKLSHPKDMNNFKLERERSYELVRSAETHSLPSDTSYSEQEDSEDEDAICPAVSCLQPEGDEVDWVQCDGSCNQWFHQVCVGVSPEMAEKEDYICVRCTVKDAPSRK
experimentSummary: LANCE Ultra TR-FRET JARID1B (KDM5B) demethylase inhibition assay
Format: biochemical
conditionNotes: 0.1 uM of test-compounds, FLAG-JARID1B, 500 nM biotinylated H3K4me3 peptide substrate, 30 min at room temperature
parameter: inhibition at 0.1 µM

Some molecules with known inhibition at 0.1 µM results, for comparison:
> print(dat)
                                   molecule  reading
1  CC1CCN(c2cccc(-c3nccc4c(=O)[nH]c(COc5ccc(F)c(Cl)c5)nc34)n2)CC1    < 20%
2  CC(=O)c1ccc(-c2cn(-c3nccc4c(=O)[nH]cnc34)nc2N)cc1    ≥ 50%
3  Nc1nn(-c2nccc3c(=O)[nH]cnc23)cc1-c1cnn(Cc2ccccc2)c1    ≥ 50%
4  O=C(Nc1nc(-c2nccc3c(=O)[nH]c(COc4ccc(F)c(Cl)c4)nc23)cs1)c1ccccc1    < 20%
5  Cc1ccc(CCNc2nc(-c3nccc4c(=O)[nH]c(COc5ccc(F)c(Cl)c5)nc34)cs2)cc1C    < 20%

Reported inhibition at 0.1 µM of CCN(CC)CCCC(C)Nc1nc(-c2nccc3c(=O)[nH]c(COc4ccc(F)c(Cl)c4)nc23)cs1 (stereo not drawn) : 20 to 50%
